These measurements were taken from ChEMBL document CHEMBL5108065.

- TEST_PROTOCOL: AUC in Beagle dog blood at 10 mg/kg, po measured at 2 to 72 hrs by LC-MS/MS analysis
- Format: ADME, organism-based, Canis lupus familiaris
- Set-up: time upper 72 hrs, dose 10 mg/kg, time lower 2 hrs, route po
MEASURED_METRIC: AUC (µM·h)

• C[C@H]1C[C@@H](N2C(=N)N[C@](C)(c3cccc(NC(=O)c4cccc(C#N)c4)c3Cl)CC2=O)CCO1 = 34.5
• C[C@H]1C[C@@H](N2C(=N)N[C@](C)(c3cccc(Nc4ccc(C5CC5)nc4)c3Cl)CC2=O)CCO1 = 62.2

----------
- TEST_PROTOCOL: in vivo
- EXPERIMENTAL_SETUP: cynomolgus monkey, blood, po, 10 mg/kg
MEASURED_METRIC: Tmax (h)

- C[C@H]1C[C@@H](N2C(=N)N[C@](C)(c3cccc(NC(=O)c4cccc(C#N)c4)c3Cl)CC2=O)CCO1: 1

----------
- TEST_PROTOCOL: Terminal half life Sprague-Dawley rat blood at 1 mg/kg, iv measured at 2 to 72 hrs by LC-MS/MS analysis
- Type: ADME, organism-based
- EXPERIMENTAL_SETUP: whole blood, time 2-72 hrs, read-out: beta t1/2 (converted)
Each entry below carries its reported half-life.
MEASURED_METRIC: half-life (h)

* C[C@H]1C[C@@H](N2C(=N)N[C@](C)(c3cccc(NC(=O)c4cccc(C#N)c4)c3Cl)CC2=O)CCO1 | 2.1
* C[C@H]1C[C@@H](N2C(=N)N[C@](C)(c3cccc(Nc4ccc(C5CC5)nc4)c3Cl)CC2=O)CCO1 | 7

----------
Listing: pIC50 of selected compounds
- STUDY_TARGET: Plasmepsin X (Plasmodium falciparum (isolate 3D7))
- Sequence (Q8IAS0 whole entry): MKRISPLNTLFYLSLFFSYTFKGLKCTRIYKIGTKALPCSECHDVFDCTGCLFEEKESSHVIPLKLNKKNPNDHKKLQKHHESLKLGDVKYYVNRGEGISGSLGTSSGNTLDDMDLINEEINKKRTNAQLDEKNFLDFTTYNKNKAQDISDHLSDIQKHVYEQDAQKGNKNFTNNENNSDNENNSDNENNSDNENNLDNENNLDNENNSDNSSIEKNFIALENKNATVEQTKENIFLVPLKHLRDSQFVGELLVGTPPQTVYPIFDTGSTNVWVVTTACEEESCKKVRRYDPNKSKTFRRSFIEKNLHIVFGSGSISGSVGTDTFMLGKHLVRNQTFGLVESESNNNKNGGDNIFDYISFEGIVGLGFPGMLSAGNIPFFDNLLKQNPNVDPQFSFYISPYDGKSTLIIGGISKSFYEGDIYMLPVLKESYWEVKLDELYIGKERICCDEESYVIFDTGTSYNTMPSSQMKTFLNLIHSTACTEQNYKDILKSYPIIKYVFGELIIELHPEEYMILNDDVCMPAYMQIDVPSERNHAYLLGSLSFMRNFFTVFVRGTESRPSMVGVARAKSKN
- TEST_PROTOCOL: biochemical
- Description: Inhibition of Plasmodium falciparum recombinant C-terminal TEV cleavable 8his-tagged PMX by FRET assay
pIC50: −log10 of the molar value.
MEASURED_METRIC: pIC50

• C[C@@]1(c2cccc(Nc3ccccc3)c2Cl)CC(=O)N(C2CCOCC2)C(=N)N1 = 7.82
• [H]/N=C1\N[C@](C)(c2cccc(Nc3cnc(C4CC4)nc3)c2Cl)CC(=O)N1[C@H]1CCO[C@@H](C)C1 = 8.05
• C[C@H]1C[C@@H](N2C(=N)N[C@](C)(c3cccc(NC(=O)c4cccc(C#N)c4)c3Cl)CC2=O)CCO1 = 8.15
• C[C@@]1(c2cccc(NC(=O)c3ccccc3)c2Cl)CC(=O)N(C2CCOCC2)C(=N)N1 = 7.49
• C[C@@]1(c2cccc(Nc3ccc(C4CC4)nc3)c2Cl)CC(=O)N(C2CCOCC2)C(=N)N1 = 7.43

----------
- TEST_PROTOCOL: Dissociation constant, pKa of the compound
- Assay type: physicochemical
Each entry below carries its reported pKa.
MEASURED_METRIC: pKa

* C[C@H]1C[C@@H](N2C(=N)N[C@](C)(c3cccc(NC(=O)c4cccc(C#N)c4)c3Cl)CC2=O)CCO1 | 8.1
* C[C@H]1C[C@@H](N2C(=N)N[C@](C)(c3cccc(Nc4ccc(C5CC5)nc4)c3Cl)CC2=O)CCO1 | 8.4

----------
- STUDY_TARGET: Potassium voltage-gated channel subfamily A member 5 (Homo sapiens)
- Sequence (P22460 whole entry): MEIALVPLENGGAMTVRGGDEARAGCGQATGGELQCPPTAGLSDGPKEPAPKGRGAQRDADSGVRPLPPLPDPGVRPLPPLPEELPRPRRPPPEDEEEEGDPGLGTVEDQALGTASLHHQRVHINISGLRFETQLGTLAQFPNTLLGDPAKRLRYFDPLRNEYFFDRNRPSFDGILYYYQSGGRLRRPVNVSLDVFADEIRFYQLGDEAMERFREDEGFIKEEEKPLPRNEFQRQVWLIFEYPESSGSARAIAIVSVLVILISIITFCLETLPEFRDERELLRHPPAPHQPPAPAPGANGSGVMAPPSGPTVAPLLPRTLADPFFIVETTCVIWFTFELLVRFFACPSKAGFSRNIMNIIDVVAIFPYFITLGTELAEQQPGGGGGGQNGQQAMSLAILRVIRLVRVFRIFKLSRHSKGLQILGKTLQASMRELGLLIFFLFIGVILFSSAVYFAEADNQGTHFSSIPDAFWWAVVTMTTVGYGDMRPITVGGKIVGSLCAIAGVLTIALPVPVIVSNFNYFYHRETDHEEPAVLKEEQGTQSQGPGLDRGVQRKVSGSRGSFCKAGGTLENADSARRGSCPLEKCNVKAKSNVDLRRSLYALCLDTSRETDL
- TEST_PROTOCOL: Inhibition of Kv1.5 (unknown origin) by patch clamp method
- Type: toxicity
MEASURED_METRIC: IC50 (µM)

- C[C@H]1C[C@@H](N2C(=N)N[C@](C)(c3cccc(Nc4ccc(C5CC5)nc4)c3Cl)CC2=O)CCO1: 5
